- Tested on: U2OS
- Protocol description: Multiplex assay against U2OS
- Format: toxicity, cell-based
- Test conditions: human, 24 h, 10 µM, compound concentration 10 uM, replicate 2
In plain terms, low Population Mitotic Cells (%), meaning strictly below 30%, gives condition met, and everything else gives condition not met.

### Prompt Here's an entry: O=c1cc(N2CCOCC2)oc2c(-c3cccc4c3sc3ccccc34)cccc12 . Is its Population Mitotic Cells (%) below 30%?
### Response condition not met

### Prompt Here's an entry: CN1CCN(Cc2ccc(Nc3ncc(Cl)c(Nc4ccccc4S(=O)(=O)N(C)C)n3)cc2)CC1 . Is its Population Mitotic Cells (%) below 30%?
### Response condition met

### Prompt Here's an entry: CNC(=O)Nc1ccc(-c2nc(N3CC4CCC(C3)O4)c3cnn(C4CCC5(CC4)OCCO5)c3n2)cc1 . Is its Population Mitotic Cells (%) below 30%?
### Response condition not met

### Prompt Here's an entry: Cc1ccc2c(c1)c1c(n2CCc2ccc(C)nc2)CCN(C)C1 [LATREPIRDINE] . Is its Population Mitotic Cells (%) below 30%?
### Response condition met

### Prompt Here's an entry: COc1cc(Nc2nccc(-c3cnn4nc(OC)ccc34)n2)cc(C(F)(F)F)c1 . Is its Population Mitotic Cells (%) below 30%?
### Response condition not met

### Prompt Here's an entry: O=c1[nH]c2ccccc2n1C1CCN(Cc2ccc(-c3[nH]c4cc5ncnc5cc4nc3-c3ccccc3)cc2)CC1 . Is its Population Mitotic Cells (%) below 30%?
### Response condition met

### Prompt Here's an entry: C[C@]12CC[C@@H]3c4ccc(O)cc4CC[C@H]3[C@@H]1CC[C@@H]2O . Is its Population Mitotic Cells (%) below 30%?
### Response condition not met

### Prompt Here's an entry: CC(C)c1noc(N2CCC(COc3ccc(-c4ccc(S(C)(=O)=O)cc4)nc3)CC2)n1 . Is its Population Mitotic Cells (%) below 30%?
### Response condition not met

### Prompt Here's an entry: C=CC(=O)Nc1ccc2[nH]c(=O)n(C3CCN(Cc4ccc(-c5nc6cc[nH]c(=O)c6cc5-c5ccccc5)cc4)CC3)c2c1 . Is its Population Mitotic Cells (%) below 30%?
### Response condition met

### Prompt Here's an entry: Cc1nc(N2CC[C@H](O)C2)ncc1-c1cc(C(F)(F)F)cc2[nH]ncc12 . Is its Population Mitotic Cells (%) below 30%?
### Response condition not met

### Prompt Here's an entry: Cl.O=C(O)c1cc(-c2ccc(C3CCNCC3)cc2)c2ccc(-c3ccc(C(F)(F)F)cc3)cc2c1 . Is its Population Mitotic Cells (%) below 30%?
### Response condition not met

### Prompt Here's an entry: O=C(c1cc2c(cc1F)OC(c1ccc(F)cc1)(c1ccc(Cl)cc1Cl)O2)N1CCOCC1 (configuration not stated) . Is its Population Mitotic Cells (%) below 30%?
### Response condition not met

### Prompt Here's an entry: CC(C)CC(=O)Nc1[nH]nc2c1CN(C(=O)C1CCN(C)CC1)C2(C)C . Is its Population Mitotic Cells (%) below 30%?
### Response condition not met

### Prompt Here's an entry: CC(C)OC(=O)N1CCC(Oc2ncnc3c2cnn3-c2ccc(S(C)(=O)=O)cc2F)CC1 . Is its Population Mitotic Cells (%) below 30%?
### Response condition not met

### Prompt Here's an entry: Cc1c[nH]c2nccc(Oc3c(F)cc(Nc4cc(Cl)nc(N)n4)cc3F)c12 . Is its Population Mitotic Cells (%) below 30%?
### Response condition met

### Prompt Here's an entry: CNC(=O)Nc1ccc2c(c1)[C@@]1(CC2)OC(=O)N(CC(=O)N(Cc2ccc(F)cc2)[C@@H](C)C(F)(F)F)C1=O . Is its Population Mitotic Cells (%) below 30%?
### Response condition not met

### Prompt Here's an entry: C=CC(=O)Nc1cccc(Sc2nc(Nc3ccc(N4CCN(C)CC4)cc3)ncc2Cl)c1 . Is its Population Mitotic Cells (%) below 30%?
### Response condition met

----------
Would you kindly list Growth Rate for each of these molecules?
- System: Fibroblast
- Protocol description: Incucyte cell viability with human fibroblast; note: filed as whole numbers so only -1 and 0 and 1 occur
- Type: toxicity, cell-based
- Test conditions: 0 h, 10 µM, compound concentration 10 uM, replicate number 1, timepoint 0 hours
Please respond with just the number, no unit label.

### Prompt Consider the molecule shown here: COCCOc1nc(-c2ccc(Cl)nc2)nc2c1CN(C(=O)c1ncn3ccccc13)CC2 What is its recorded Growth Rate?
### Response 0

### Prompt Consider the molecule shown here: CCNC(=O)c1cc2c(N3CCOC[C@@H]3C)ccnc2n1C What is its recorded Growth Rate?
### Response 0

### Prompt Consider the molecule shown here: CN(C)C(=O)Cn1cc(-c2nc([C@@](C)(c3ccc(-c4cnc(N)nc4)cc3)C3CC3)no2)cn1 What is its recorded Growth Rate?
### Response 1

### Prompt Consider the molecule shown here: COc1ccc(-c2ccc3cc(C(=O)O)ccc3c2)cc1C12CC3CC(CC(C3)C1)C2 What is its recorded Growth Rate?
### Response 1

### Prompt Consider the molecule shown here: CCOc1cn(-c2ccc(F)cc2C)nc1C(=O)Nc1ccc(Oc2ccnc3cc(OC)c(OC)cc23)c(F)c1 What is its recorded Growth Rate?
### Response 1

### Prompt Consider the molecule shown here: CC(C)c1noc(N2CCC(COc3ccc(-c4ccc(S(C)(=O)=O)cc4)nc3)CC2)n1 What is its recorded Growth Rate?
### Response 0

### Prompt Consider the molecule shown here: C=CC(=O)Nc1ccc2[nH]c(=O)n(C3CCN(Cc4ccc(-c5nc6cc[nH]c(=O)c6cc5-c5ccccc5)cc4)CC3)c2c1 What is its recorded Growth Rate?
### Response 0

### Prompt Consider the molecule shown here: CCCOc1ccc([C@H]2[C@H](C(=O)O)[C@@H](c3ccc4c(c3)OCO4)CN2CC(=O)Nc2c(CC)cccc2CC)cc1 What is its recorded Growth Rate?
### Response 0

### Prompt Consider the molecule shown here: CNC(=O)Nc1ccc(-c2nc(N3CC4CCC(C3)O4)c3cnn(C4CCC5(CC4)OCCO5)c3n2)cc1 What is its recorded Growth Rate?
### Response 1

### Prompt Consider the molecule shown here: CNC(=O)c1ccc(Nc2ncc(C(F)(F)F)c(NCc3nccnc3N(C)S(C)(=O)=O)n2)cc1 What is its recorded Growth Rate?
### Response 0

### Prompt Consider the molecule shown here: CN1CCc2c(c3ccccc3n2Cc2ccc(C(=O)NO)cc2)C1 What is its recorded Growth Rate?
### Response 1

### Prompt Consider the molecule shown here: Cc1cc(C)c(-n2ccn3nc(-c4cccnc4)cc23)cc1NC(=O)c1cc(C#N)cc(S(F)(F)(F)(F)F)c1 What is its recorded Growth Rate?
### Response 0

### Prompt Consider the molecule shown here: COC(=O)C1=C(C)NC(C)=C(C(=O)OCCCN2CCC(c3ccccc3)(c3ccccc3)CC2)[C@H]1c1cccc([N+](=O)[O-])c1 What is its recorded Growth Rate?
### Response 0

### Prompt Consider the molecule shown here: C[C@]1(C(=O)N(CCCC(=O)O)Cc2cccc(Cl)c2)CCN1C(=O)c1csc2ccccc12 What is its recorded Growth Rate?
### Response 0

### Prompt Consider the molecule shown here: Cl.Clc1ccc(CCCOCCCN2CCCCC2)cc1 [PITOLISANT HYDROCHLORIDE] What is its recorded Growth Rate?
### Response 0

### Prompt Consider the molecule shown here: COc1ccccc1CN[C@H]1C2CCN(CC2)[C@H]1C(c1ccccc1)c1ccccc1 What is its recorded Growth Rate?
### Response 0

----------
- Tested on: Fibroblast
- Protocol description: Multiplex assay against human fibroblast
- Assay type: toxicity, cell-based
- Test conditions: 48 h, 1 µM, compound concentration 1 uM, replicate 1
Would you kindly list Population Tubulin-Different-Phenotype (%) for each of these compounds?
Give just the number in %; leave the unit off.

### Prompt Consider the compound shown here: CCc1nn(CCCN2CCN(c3cccc(Cl)c3)CC2)c(=O)n1CCOc1ccccc1.Cl [NEFAZODONE HYDROCHLORIDE] What is its recorded Population Tubulin-Different-Phenotype (%)?
### Response 51

### Prompt Consider the compound shown here: O=C(c1cc2c(cc1F)OC(c1ccc(F)cc1)(c1ccc(Cl)cc1Cl)O2)N1CCOCC1 (stereo unspecified) What is its recorded Population Tubulin-Different-Phenotype (%)?
### Response 43

### Prompt Consider the compound shown here: COc1ccccc1CN[C@H]1C2CCN(CC2)[C@H]1C(c1ccccc1)c1ccccc1 What is its recorded Population Tubulin-Different-Phenotype (%)?
### Response 29

### Prompt Consider the compound shown here: O=c1cc(N2CCOCC2)oc2c(-c3cccc4c3sc3ccccc34)cccc12 What is its recorded Population Tubulin-Different-Phenotype (%)?
### Response 27

### Prompt Consider the compound shown here: CC(C)NC(=O)N1CC[C@H](NC2=Nc3cc(F)ccc3N(CC(F)F)c3ccc(Cl)cc32)C1 What is its recorded Population Tubulin-Different-Phenotype (%)?
### Response 20

### Prompt Consider the compound shown here: Cl.O=C(O)c1cc(-c2ccc(C3CCNCC3)cc2)c2ccc(-c3ccc(C(F)(F)F)cc3)cc2c1 What is its recorded Population Tubulin-Different-Phenotype (%)?
### Response 40
